- run.parameters: buffer; pH 7.4; 200.0 µM
Classify by measured solubility kinetic: Satisfied if it is equal to or exceeds 6 µg/mL, Not satisfied if it is smaller.

Quick check, solubility kinetic >= 6 µg/mL? CCCCc1nc2ccccc2[nH]1
Satisfied

For this compound, is measured solubility kinetic 6 µg/mL or higher? CCOC(=O)c1ccc(NC(=S)NCc2ccccc2)cc1
Not satisfied

Entry Cl.O=C(NCCN1CCCC1)C(c1ccccc1)c1ccccc1 : is its solubility kinetic no less than 6 µg/mL?
Satisfied

# check: solubility kinetic of OCCCC1CCCCN1Cc1nc(Cc2ccccc2Cl)no1 (stereo not drawn) is greater than or equal to 6 µg/mL
Satisfied

Reported solubility kinetic reaches at least 6 µg/mL for Cc1onc(-c2ccccc2)c1NC(=O)N(CCC#N)Cc1ccccc1 ?
Satisfied

Assess whether reported solubility kinetic for COc1ccc2c(c1)c(C(C)=O)c(C)n2CCc1ccc(OC)c(OC)c1 sits at 6 µg/mL or higher.
Satisfied

I'd appreciate it if you could say whether Cc1noc(C)c1-c1nc(CSc2ccccc2)no1 has solubility kinetic at least equal to 6 µg/mL.
Not satisfied

In plain terms: is recorded solubility kinetic at least 6 µg/mL for O=C1NC(N2CCOCC2)=N/C1=C/c1ccc2c(c1)OCO2 ?
Satisfied

Is solubility kinetic for CC(=O)Nc1ccc(S(=O)(=O)NCC(=O)OCC(=O)N2CC(C)OC(C)C2)cc1 (stereo not drawn) at or above 6 µg/mL?
Satisfied

Textbook exercise: given the entry Cc1cccc(C(=O)OCC(=O)Nc2ccc(F)cc2)c1 , state whether its solubility kinetic is greater than or equal to 6 µg/mL.
Satisfied

Does the reported solubility kinetic for CC(C)(C)C(=O)N1CCN(c2nc3ccc(Cl)cc3s2)CC1 fall at or above the 6 µg/mL mark?
Not satisfied

Would you say COc1ccc(N2C(=O)c3cccc4cccc(c34)C2=O)cc1 shows solubility kinetic at minimum 6 µg/mL?
Not satisfied

Kindly determine if solubility kinetic recorded for CCN1C(=O)c2cccc3c(S(=O)(=O)Nc4ccccc4O)ccc1c23 is above or exactly 6 µg/mL.
Not satisfied
